- EXPERIMENT: In vivo biodistribution by SPECT/CT imaging
- Design: species or system C57BL/6 mice
- TEST_SETTINGS: female, C57BL/6, mouse, blood pool surrogate (left ventricle of the heart), iv, 30 MBq, total radioactivity; 24 h p.i.; ROI over left ventricle of the heart; mean ± SD, n = 6; SD; read-out: Blood Pool Surrogate %ID/g
Numbered stars: 1 amine (or outer) side, 2 acyl side, 3 side chain; on linkers, the order of the positions; unused ones are H or OH. Bridge positions count the residues as written; N and C are the ends. Peptide text beside a SMILES is read from it. * marks the point of attachment. X1 = O=C(O)CN1CCN(CC(=O)O)CCN(CC(=O)N2CCN(Cc3cc(C[*:1])cc(C[*:2])c3)CC2)CCN(CC(=O)O)CC1; Hexanoyl = CCCCCC(=O)*

COMPOUND | VALUE_UNIT | tissue uptake at 24 h
CCCCCC(=O)N[C@H]1CSCc2cc(cc(CN3CCN(C(=O)CN4CCN(CC(=O)O)CCN(CC(=O)O)CCN(CC(=O)O)CC4)CC3)c2)CSC[C@@H](C(=O)N[C@@H](CC(=O)O)C(N)=O)NC(=O)[C@H](Cc2ccccc2)NC(=O)[C@H](CCC(N)=O)NC(=O)[C@H]([C@@H](C)O)NC(=O)[C@@H]2CCCN2C(=O)[C@@H]2CCCN2C1=O [^177Lu-FAP-2287, metal not drawn] (Hexanoyl-CPPTQFCD-NH2; linker 1-7 via X1; N-terminus and C-terminus assumed) | %ID/g | 0.1

----------
- EXPERIMENT: In vivo biodistribution by SPECT/CT imaging
- Parameters: species or system C57BL/6 mice
- TEST_SETTINGS: female, C57BL/6, mouse, kidney, total radioactivity; 3 h p.i.; 30 MBq iv; mean ± SD, n = 6; SD; read-out: Kidney %ID/g
- Experimental: All animal experiments were carried out under licenses approved by the respective authorities and in compliance with guidelines on animal welfare. […] Animals were anesthetized (isoflurane 3% in 100% O2) and eye lubricants were applied before each scan. Study was performed at Minerva Imaging ApS (Denmark). […] For quantification, VivoQuant (InviCRO) was used to draw regions of interest (ROIs) in relevant tissues, with a ROI drawn over the left ventricle of the heart to serve as blood pool surrogate. […]
Numbered stars: 1 amine (or outer) side, 2 acyl side, 3 side chain; on linkers, the order of the positions; unused ones are H or OH. Bridge positions count the residues as written; N and C are the ends. Peptide text beside a SMILES is read from it. * marks the point of attachment. X1 = O=C(O)CN1CCN(CC(=O)O)CCN(CC(=O)N2CCN(Cc3cc(C[*:1])cc(C[*:2])c3)CC2)CCN(CC(=O)O)CC1; Hexanoyl = CCCCCC(=O)*
VALUE_KIND: tissue uptake at 3 h (%ID/g)

COMPOUND | VALUE_UNIT | MEAS_VALUE
CCCCCC(=O)N[C@H]1CSCc2cc(cc(CN3CCN(C(=O)CN4CCN(CC(=O)O)CCN(CC(=O)O)CCN(CC(=O)O)CC4)CC3)c2)CSC[C@@H](C(=O)N[C@@H](CC(=O)O)C(N)=O)NC(=O)[C@H](Cc2ccccc2)NC(=O)[C@H](CCC(N)=O)NC(=O)[C@H]([C@@H](C)O)NC(=O)[C@@H]2CCCN2C(=O)[C@@H]2CCCN2C1=O [^177Lu-FAP-2287, metal not drawn] (Hexanoyl-CPPTQFCD-NH2; linker 1-7 via X1; N-terminus and C-terminus assumed) | %ID/g | 2

----------
- EXPERIMENT: In vivo biodistribution by SPECT/CT imaging
- Design: species or system C57BL/6 mice
- TEST_SETTINGS: female, C57BL/6, mouse, liver, total radioactivity; 72 h p.i.; 30 MBq iv; mean ± SD, n = 6; SD; read-out: Liver %ID/g
Numbered stars: 1 amine (or outer) side, 2 acyl side, 3 side chain; on linkers, the order of the positions; unused ones are H or OH. Bridge positions count the residues as written; N and C are the ends. Peptide text beside a SMILES is read from it. * marks the point of attachment. X1 = O=C(O)CN1CCN(CC(=O)O)CCN(CC(=O)N2CCN(Cc3cc(C[*:1])cc(C[*:2])c3)CC2)CCN(CC(=O)O)CC1; Hexanoyl = CCCCCC(=O)*
VALUE_KIND: tissue uptake at 72 h

COMPOUND | MEAS_VALUE
CCCCCC(=O)N[C@H]1CSCc2cc(cc(CN3CCN(C(=O)CN4CCN(CC(=O)O)CCN(CC(=O)O)CCN(CC(=O)O)CC4)CC3)c2)CSC[C@@H](C(=O)N[C@@H](CC(=O)O)C(N)=O)NC(=O)[C@H](Cc2ccccc2)NC(=O)[C@H](CCC(N)=O)NC(=O)[C@H]([C@@H](C)O)NC(=O)[C@@H]2CCCN2C(=O)[C@@H]2CCCN2C1=O [^177Lu-FAP-2287, metal not drawn] (Hexanoyl-CPPTQFCD-NH2; linker 1-7 via X1; N-terminus and C-terminus assumed) | 0.2 %ID/g

----------
- EXPERIMENT: In vivo biodistribution by SPECT/CT imaging
- Parameters: species or system C57BL/6 mice
- TEST_SETTINGS: female, C57BL/6, mouse, tumor/kidney, iv, 30 MBq, total radioactivity; 3 h p.i.; read-out: T/K ratio (tumor-to-kidney)
Numbered stars: 1 amine (or outer) side, 2 acyl side, 3 side chain; on linkers, the order of the positions; unused ones are H or OH. Bridge positions count the residues as written; N and C are the ends. Peptide text beside a SMILES is read from it. * marks the point of attachment. X1 = O=C(O)CN1CCN(CC(=O)O)CCN(CC(=O)N2CCN(Cc3cc(C[*:1])cc(C[*:2])c3)CC2)CCN(CC(=O)O)CC1; Hexanoyl = CCCCCC(=O)*
VALUE_KIND: tissue to tissue ratio at 3 h

COMPOUND | MEAS_VALUE
CCCCCC(=O)N[C@H]1CSCc2cc(cc(CN3CCN(C(=O)CN4CCN(CC(=O)O)CCN(CC(=O)O)CCN(CC(=O)O)CC4)CC3)c2)CSC[C@@H](C(=O)N[C@@H](CC(=O)O)C(N)=O)NC(=O)[C@H](Cc2ccccc2)NC(=O)[C@H](CCC(N)=O)NC(=O)[C@H]([C@@H](C)O)NC(=O)[C@@H]2CCCN2C(=O)[C@@H]2CCCN2C1=O [^177Lu-FAP-2287, metal not drawn] (Hexanoyl-CPPTQFCD-NH2; linker 1-7 via X1; N-terminus and C-terminus assumed) | 4.1

----------
- EXPERIMENT: In vivo biodistribution by SPECT/CT imaging
- Set-up: species or system C57BL/6 mice
- TEST_SETTINGS: female, C57BL/6, mouse, blood pool surrogate (left ventricle of the heart), iv, 30 MBq, total radioactivity; 72 h p.i.; ROI over left ventricle of the heart; mean ± SD, n = 6; SD; read-out: Blood Pool Surrogate %ID/g
Numbered stars: 1 amine (or outer) side, 2 acyl side, 3 side chain; on linkers, the order of the positions; unused ones are H or OH. Bridge positions count the residues as written; N and C are the ends. Peptide text beside a SMILES is read from it. * marks the point of attachment. X1 = O=C(O)CN1CCN(CC(=O)O)CCN(CC(=O)N2CCN(Cc3cc(C[*:1])cc(C[*:2])c3)CC2)CCN(CC(=O)O)CC1; Hexanoyl = CCCCCC(=O)*
VALUE_KIND: tissue uptake at 72 h (%ID/g)

MOLECULE | MEAS_VALUE
CCCCCC(=O)N[C@H]1CSCc2cc(cc(CN3CCN(C(=O)CN4CCN(CC(=O)O)CCN(CC(=O)O)CCN(CC(=O)O)CC4)CC3)c2)CSC[C@@H](C(=O)N[C@@H](CC(=O)O)C(N)=O)NC(=O)[C@H](Cc2ccccc2)NC(=O)[C@H](CCC(N)=O)NC(=O)[C@H]([C@@H](C)O)NC(=O)[C@@H]2CCCN2C(=O)[C@@H]2CCCN2C1=O [^177Lu-FAP-2287, metal not drawn] (Hexanoyl-CPPTQFCD-NH2; linker 1-7 via X1; N-terminus and C-terminus assumed) | 0.1

----------
- EXPERIMENT: In vivo biodistribution by SPECT/CT imaging
- Parameters: species or system C57BL/6 mice
- TEST_SETTINGS: female, C57BL/6, mouse, kidney, total radioactivity; 24 h p.i.; 30 MBq iv; mean ± SD, n = 6; SD; read-out: Kidney %ID/g
Numbered stars: 1 amine (or outer) side, 2 acyl side, 3 side chain; on linkers, the order of the positions; unused ones are H or OH. Bridge positions count the residues as written; N and C are the ends. Peptide text beside a SMILES is read from it. * marks the point of attachment. X1 = O=C(O)CN1CCN(CC(=O)O)CCN(CC(=O)N2CCN(Cc3cc(C[*:1])cc(C[*:2])c3)CC2)CCN(CC(=O)O)CC1; Hexanoyl = CCCCCC(=O)*
VALUE_KIND: tissue uptake at 24 h (%ID/g)

MOLECULE | MEAS_VALUE
CCCCCC(=O)N[C@H]1CSCc2cc(cc(CN3CCN(C(=O)CN4CCN(CC(=O)O)CCN(CC(=O)O)CCN(CC(=O)O)CC4)CC3)c2)CSC[C@@H](C(=O)N[C@@H](CC(=O)O)C(N)=O)NC(=O)[C@H](Cc2ccccc2)NC(=O)[C@H](CCC(N)=O)NC(=O)[C@H]([C@@H](C)O)NC(=O)[C@@H]2CCCN2C(=O)[C@@H]2CCCN2C1=O [^177Lu-FAP-2287, metal not drawn] (Hexanoyl-CPPTQFCD-NH2; linker 1-7 via X1; N-terminus and C-terminus assumed) | 1.1
